Reference source: paper PMC7047428

Biological target: D2R WT (Homo sapiens, UniProt P14416)
Sequence (P14416 whole entry): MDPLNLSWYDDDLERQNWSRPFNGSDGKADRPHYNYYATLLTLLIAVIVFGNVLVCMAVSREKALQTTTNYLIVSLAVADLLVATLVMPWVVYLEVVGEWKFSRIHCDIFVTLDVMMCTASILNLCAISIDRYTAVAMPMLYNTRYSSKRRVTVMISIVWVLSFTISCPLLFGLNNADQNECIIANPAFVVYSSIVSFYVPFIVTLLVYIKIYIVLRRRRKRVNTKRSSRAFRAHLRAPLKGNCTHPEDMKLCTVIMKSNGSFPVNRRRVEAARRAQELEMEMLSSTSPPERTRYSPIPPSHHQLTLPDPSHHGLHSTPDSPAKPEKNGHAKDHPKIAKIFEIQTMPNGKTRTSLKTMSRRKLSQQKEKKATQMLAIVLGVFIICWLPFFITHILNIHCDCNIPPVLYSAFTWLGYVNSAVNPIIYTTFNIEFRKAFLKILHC
Test: Split luciferase GloSensor cAMP assay, activation of Gi protein
Type: cell-based
METRIC_NAME: EC50 (nM)

(I) Oc1c(CN2CCN(c3ccccn3)CC2)cc(F)c2cccnc12 [MLS-d1]
(II) Oc1c(CN2CCN(c3ccccn3)CC2)ccc2cccnc12 [MLS-d2]
Query: Of I and II , whose reported EC50 is the larger number? I would appreciate it if you answered with the label of your choice.
Reply: II
